Molecular target: human melanocortin-3 (MC-3) receptor (human, UniProt P41968)
Test: displacement of 125I-NDP-alpha-MSH, membranes of HEK 293 cells with hMC3 (value column 3)
Bridge positions count the residues as written; N and C are the ends. Square brackets hold non-standard residues; d marks the D form. Ends that are not written are not given here. Abu = CC[C@H](N)C(=O)O
measurement type: IC50

Worked examples follow.
binder: CRFFGSAC (disulfide 1-8 (inferred)) [peptide of SEQ ID NO:7]
IC50: > 1 µM
--
binder: MRCVRLHESCLGQQVPCCDPCATCYCRFFNAFCYCRKLGTAMNPCSRT [Md65-AGRP]
IC50: 0.002 µM
--
binder: AC[Abu]DP[Abu]AS[Abu]QCRFFRSACSCRVL (disulfide (positions not given here)) [peptide of SEQ ID NO:16]
IC50: > 1 µM
--
binder: HESCLGQQVPC[Abu]DP[Abu]ATCYCRFFNAFCYCRKL (disulfide (positions not given here)) [peptide of SEQ ID NO:2]
IC50: > 1 µM
--
binder: RNSCKPPAPAC[Abu]DP[Abu]ASCQCRFFRSACSCRVL (disulfide (positions not given here); not fully specified (bridges); printed as Arg-Asn-Ser-Cys-Lys-Pro-Pro-Ala-Pro-Ala-Cys-Abu-Asp-Pro-Abu-Ala-Ser-Cys-Gln-Cys-Arg-Phe-Phe-Arg-Ser-Ala-Cys-Ser-Cys-Arg-Val-Leu; also: three disulfides, pairing not given here) [peptide of SEQ ID NO:13]
IC50: > 1 µM
--
binder: HES[Abu]LGQQVPC[Abu]DP[Abu]AT[Abu]YCRFFNAFCYCRKL (disulfide (positions not given here)) [peptide of SEQ ID NO:4]
IC50: 0.85 µM

q: Input C[Abu]DPCAS[Abu]Q[Abu]RFFRSA[Abu]SCRVLSLNC (disulfide (positions not given here); also: oxidised to disulfides, pairs not given here) [peptide of SEQ ID NO:18] , output reported IC50.
a: > 1 µM

q: Input CRFFNAFC (disulfide 1-8 (inferred)) [peptide of SEQ ID NO:6] , output reported IC50.
a: > 1 µM

q: Input [Abu][Abu]DPCAS[Abu]QCRFFRSACS[Abu]RVLSLNC (disulfide (positions not given here); also: oxidised to disulfides, pairs not given here) [peptide of SEQ ID NO:17] , output reported IC50.
a: > 1 µM

q: Input [Abu][Abu]DPCAT[Abu]YCRFFNAFCY[Abu]RKLGTAMNPCSRT (disulfide (positions not given here); not fully specified (bridges); also: disulfide pairing not given here) [peptide of SEQ ID NO:9] , output reported IC50.
a: > 1 µM

q: Input RNS[Abu]KPPAPAC[Abu]DP[Abu]AS[Abu]QCRFFRSACSCRVL (disulfide (positions not given here)) [peptide of SEQ ID NO:15] , output reported IC50.
a: > 1 µM
